Item-by-item account of CC50
Test: in vitro
Settings: cattle

For orientation, consider the following solved cases.
>  <MOLECULE>
CC1(O)[C@@H](O)[C@@H](CO)O[C@H]1n1cnc2c(=O)[nH]c(N)nc21 (stereo partly drawn)

>  <CC50>
100 µM

$$$$
>  <MOLECULE>
CC1(O)[C@@H](O)[C@@H](CO)O[C@H]1n1cnc2c(N)ncnc21 (stereo partly drawn)

>  <CC50>
20 µM

$$$$

Here's the next entry for you.
Quick note, CC50 for NC(=O)c1ncn([C@@H]2O[C@H](CO)[C@@H](O)[C@H]2O)n1 [Ribavirin, reference compound] landed at 5 µM
